Assay: Particle size distribution (Microtrac S3500 laser particle size analyzer, wet mode)
Assay type: physicochemical
Settings: after ultrasonication for 30 seconds, dispersion medium Isopar G
VALUE_TYPE: MV (average particle diameter calculated by volume) (μm)
Give your result in μm as a bare value.

Briefly, MV (average particle diameter calculated by volume) measured for CCCCCCCCCCCCCCCCCCCC(=O)N[C@H]1CC[C@@]2(C)[C@@H](C1)C[C@@H](O)[C@@H]1[C@@H]2C[C@H](O)[C@]2(C)[C@@H]([C@H](C)CCC(=O)O)CC[C@@H]12 [Form CS5] : 75.6

For this compound ( CCCCCCCCCCCCCCCCCCCC(=O)N[C@H]1CC[C@@]2(C)[C@@H](C1)C[C@@H](O)[C@@H]1[C@@H]2C[C@H](O)[C@]2(C)[C@@H]([C@H](C)CCC(=O)O)CC[C@@H]12 [Form CS2] ), measured MV (average particle diameter calculated by volume) is 41.9

compound CCCCCCCCCCCCCCCCCCCC(=O)N[C@H]1CC[C@@]2(C)[C@@H](C1)C[C@@H](O)[C@@H]1[C@@H]2C[C@H](O)[C@]2(C)[C@@H]([C@H](C)CCC(=O)O)CC[C@@H]12 [Form CS3] , MV (average particle diameter calculated by volume) observed: 26.3

# next compound below
The reported value for CCCCCCCCCCCCCCCCCCCC(=O)N[C@H]1CC[C@@]2(C)[C@@H](C1)C[C@@H](O)[C@@H]1[C@@H]2C[C@H](O)[C@]2(C)[C@@H]([C@H](C)CCC(=O)O)CC[C@@H]12 [Solid disclosed in CN100386339C, reference compound] in terms of MV (average particle diameter calculated by volume) is 452.5

Where these numbers come from: patent US11136347B2
